B1: HDV Ribozyme (parent)
chain: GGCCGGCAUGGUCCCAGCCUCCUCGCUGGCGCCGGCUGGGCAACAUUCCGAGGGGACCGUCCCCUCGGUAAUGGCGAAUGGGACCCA

- Variants of: B1
- method_description: self-cleavage, relative activity (ratio to wild type); higher = more cleavage; co-transcriptional
assay_metric: self-cleavage

| sequence_variant | meas_value |
| --- | --- |
| C14A C63U | 0.731 |
| G10U G17U | 0.487 |
| G29U C58U | 0.0292 |
| U27A C57U | 1.01 |
| C22G C57U | 0.089 |
| A70U G82U | 0.567 |
| C15G C32A | 0.158 |
| G17C C30A | 0.342 |
| G11U C21G | 0.086 |
| U60G C75U | 0.231 |
| G10U G52A | 0.878 |
